Where do these numbers come from? They come from the nanobody polyreactivity screen of Harvey et al. (2022).

test: yeast display, Sf9 membrane polyspecificity reagent, FACS + sequencing; frameworks hold sequencing errors

| primarySequence | polyreactivity (PSR sort gate) |
| --- | --- |
| QVQLVESVGGLVQAGGRLRLSCAASGFIFYEYAMGWYRQAPGKERELDPAITSGGSTDYADSVKGLFTISRDNAKNTVYLQMNSLKPEDTAVYYCNADLFTGYYWYNYCGQGTQVTVSS | low polyreactivity |
| QVQLVESGGGLVQAGGSLRLSCSASGSNFYTNAMGWYRQAPGKERELVAVITASGGSTYYADSVKGRFTISRDYAKNTVYLLMNSLKPEDTAVYYCASDPVFNYDYWGQGTQVTVSS | low polyreactivity |

###

assay: yeast display, Sf9 membrane polyspecificity reagent, FACS + sequencing; frameworks hold sequencing errors

| primarySequence | polyreactivity (PSR sort gate) |
| --- | --- |
| QVQLVESGGGLVQAGGSLRLSCAASGGTYNSNAMGWYRQAPAKEREFVAAISSSGGSTYYADSVKGRFTISRDNAKNTVNLQMNSLKPEDTAVYYCAKRYPYPNCRFRFGYWGQGTQVTVSS | high polyreactivity |
| QVQLVESGGGLVQAGGSLRLSCAASGGIFPYYAMGWYRQAPGKERELVADISSGGSTYYADSVKGRFTISRDNAKNTVYLQMNSLKPEDTAVYYCAADAGQYFTYSGDDNHDYWGQGTQVTVSS | low polyreactivity |
| QVQLVESGGGLVQAGGSLRLSCAASGSIFYRNAMGWYRQTPGKERELVAAISSDGSTNYADSVKGRFTFSLDNAKNTVYLQMNRLNPEYTAVYYCAAPWTQFLDYWGQGTQVTVSS | low polyreactivity |
| QVHLVESGGGLVQAGGSLRLSCDASGRIFKYNAMGWYRQAPGKERELVAAISSGGSTNYADSVKGRFTISRDNAKNTVYLQMNSLKPEDTAVYDCAADGTRVSSFHYLVWLCYWGQGTQVTVSS | low polyreactivity |
| QVQLVESGGGLVQAGGSLRLSCAASGSTVESNVMGWYRQAPGKERELVAAISYSGGSTYIADSVKGRFTISRDNAKNTVYLQLNSLNPEDTAVLYSNALTSGYLYTFHRLWYPMYYWGQGTQGTVSS | high polyreactivity |

###

assay: yeast display, Sf9 membrane polyspecificity reagent, FACS + sequencing; frameworks hold sequencing errors

| primarySequence | polyreactivity (PSR sort gate) |
| --- | --- |
| QVQLVESGGGLVQAGGSLRLSCAASGSIFDWYAMGWYRQAPGKERELVAAIDSSGSSTYYADSVKGRFTISRDNAKNTVYLQMNSLKPEDNAVYYCAADSDWIRDWFGSLYGSDYWGQGSQVTVSS | low polyreactivity |
| QVQLVESGGGLVQAGGSLRLSCAASGSILGYYVMGWYRQAPGKERELVAAISWSSGSTYYADSVKGRFTISRDNAKNTVYLQLNSLKPEDTAVYYCNASNVYFWFVTLEFDSWGQGTQVTVSS | low polyreactivity |
| QVQLVESGGGLVQAGGSLRLSCAASGFTFGDYAMGRYRPEPGKERELVAAISSGGNTNYADSVKGRFTISRDNAKHTVYLQMNRLKPEDTAVNNCAPRRQSKGYKLNYWGHGTQVTVSS | high polyreactivity |
| QVQLVESGGGLVQAGGSLRLSCAASGSKFYTNVMGWYRQAPGKERELVARIDSGGSTNYADSVKGRFTISRDNAKNTVYLQMNSLKPEDTAVYYCAADWYIYDYWGQGTQVTVSS | low polyreactivity |
| QVQLVESGGGLVQAGGSLRISCAASGRISVVNAMGWYRQAPGKEREMVAAIRRASTNYADSVKGRFTISRDNAKNTVYLQMNSLKPEDTAVYFCAARVYGINIFEYWGQGTQVTVSS | high polyreactivity |
| QVQLVESGGGLVQAGGILRLSCAASGSTFFSNTKGWYRQAPGKERELVAAITDSGTSTYYADSVKGRFTISRDIAKNTVYLQMNSLKPEDTAVYYGDAYPSGWYDYWGHGTQVTVSS | low polyreactivity |
| QVQLVESGGGLVQAGGSLRLSCAASGRTFTAYAMGWYRQAPGKERELVAAITTSGGTTYYADSVKGRFTISRDNAKNTVYLQMNSLKPEDTAVYYCAADVVVSWWLIYDYWGQGTQVTVSS | low polyreactivity |
| QVQLQESGGGLVQAGGSLRLSCAASGTITVLYKMGWFRQAPGKEREFVASINYGTRTYYADSVKGRFTVSRDSAKNTVYLQMNSLKPEDTAVYYCAAAYRWQDVYRYWGQGTQVTVSS | low polyreactivity |
| QVQLVESGGGLVQAGGSLRLSCAASGSIFPYYAMGWYRQAPGKERELVAAINWIGGSTYYADSVKGRFTISRDNAKNTVYLQMNSLKPEDTAVYYCAVDYYSYYYEYDYWGQGTQVTVSS | high polyreactivity |
| QVQLVESGGCLVQAGGSLRLSCAASGSTFPIYAMGWYRQAPGKERELVARITWNGGRTYYADSVKGRFTISRDNAKNTVYLQMNSLKPEDTAVYYCAAGKIGSYHYDYWGQGTQVTVSS | high polyreactivity |
| QVQLVESGGGLVQAGGSLRLLCADSGFTFEYYAMGWYRQAPGKERELVAAITSGGSTNYADSVKGRFTISRDNAKNTVYVQMNSLKPEDTAVYYCAAGYWYRYAALRYDHWGQGTQVTVSS | low polyreactivity |

###

test: yeast display, Sf9 membrane polyspecificity reagent, FACS + sequencing; frameworks hold sequencing errors
assayEndpoint: polyreactivity (PSR sort gate)

| primarySequence | measured |
| --- | --- |
| QVQLVESGGGLVQAGGSLRLSCAASGSIFSVNAMGWYRQAPGKERELVAAISWRGGSTYYADSVKGRFTISRDNAKNTVYLQMNSLKPEDTAVYYCNAVISVKRSTRYGYWGQGTQVTVSS | low polyreactivity |
| QVQHVESGGGLVQAGGSLRLSCAASGFIFPTYAMGWYRQAPGKERELVATITTNAGGTHYADSVKGRFTISRDNAKNTVYLQMNSLKPEDTAVYYCAAKQYRPKQRKYWTRIYDYWGQGTQVTVSS | low polyreactivity |
| QVQLVESGGGLVQAGGSLRLSCAASGFTFIGYAMGWNRQAPGKERELVADITYSGSSTYYADSVKGRFTISRDNAKNTVYFQMNSLKPEDTAVYYCAAEAYYYWFDVVYWGQGSQVTVSS | low polyreactivity |
| QLQLVESGGGLVQAGGSLRLSCAASVRIFDVYAMGWYRQAPGKERELVAAITWDGGSTYYADSVKGRFTISRDNAKNTVYLQMNSLKPEDTAVYYCAAEPVYTQRKGYDYWGHGTQVTVSS | low polyreactivity |
| QVQLVESGGGLVQAGGSLRLSCAASGSIFYYNAMGWYRQAPGKESELVAASSRRVGNTYYADSVKGRFTISRDNAKNTVYLQMNSLKPEDTAVYYCNTDRSSRPSYDYWGQGTQVTVSS | high polyreactivity |
| QVQLVESGGGLVQAGGSLRLSCAASGFIFWSNAMGWYRQAPGKERELVAAINSSGGRTYYADSVKGRFTISRDNAKNTVYLQMNSLKPEDTAVYYCAARLHSPRYRYDYWGQGTQVTVSS | high polyreactivity |
| QVQLVESGGGLVQAGGSLRLSCAASGSTFVVNAMGWYRQAPGKERELVAAITQSGGSTFYADSVKGRFTISRDNAKNTVYLQINSLKPEDTAVYYWGQCTQVTVSS | low polyreactivity |
| QVQLVESGGGLVQAGGSLRLSCAASGSIFHLYAMGWYRQAPGKEREFVAAISSSGGRTYYADSVKGRFTISRDNAKNTVYLQMNSLKPEDTAVYYCATAEQYGTKLRQVSYQYDYWGHGTQVTVSS | low polyreactivity |
| QVQLVESGGGLVQAGGSLRLSCAASGFTFYVYAMGWYRQARGQERELVATISRGGSTNYADSVKGRFTISRDNAKNTVYLQMNSLKPEDTAVYYCAARKYHYFPSRYGYWGQGTQVTVSS | high polyreactivity |
| QVQLVESGGGLVQAGGSLRLICAASGSTFYYNDMGWYRQAPGKERELVAAITGDGTTDYADSVKGRFTISRDNAKNTVYLQMNSLKPEDTAVYYCATTWSTYKWPDAYIIWYGYWGQGTQVTVSS | high polyreactivity |
| QVQLVESGGGLVQAGGSLRLSCAASGRIYDYYTMGWYRQAPGKERELVAAITWIGGSTYYADSVKGRFTISRDNAKNTVYLQMNSLKPEDTAVYYWNAEGTALPYRADTVGGYYYWGQGTQVTVSS | low polyreactivity |
| QVQLVESGGGLVQAGGSLRLSCAASGLIFYRYAMGWYRQAPGKERELVAAISRSGSSTYYADSVKGRFTISRDNAKNTFYLQINSLKPEDTAVYYCNAGYGWIWDDRGYWGQGTQVTVSS | high polyreactivity |
| QVQLVESGGGLVQAGGSLRLSCAASGIIFPFYAMGWYRQEPGKERELVAAITSGDDTYYADSVKGRFTISRDNAKNTVYLQMNSLKPEDTAVYYCAADSPYVVAWPYVWYFTFDYCGQGTQVTVSS | low polyreactivity |
| QVQLVESGGGLVQAGGSLRLSCAASGFIFRRNAMGWYRPAPGKERELVAAITKSGGSTYYADSVKGRFTISRDNAKNTVYLQMNSLKPEDTAVYYCAAPYSAKELYYRMDYWGQGTQVTVSS | high polyreactivity |
| QVQLVESGGGLVQAGGSLRLSCAASGRTFMKNTMGWYIQAPGKERELVAVITRNGDSTYADSVKGRFTISRDNAKNTVYLQKNSLKPEDTAVFYCNVGSYRYRRYDYWGQGTQVTVSS | high polyreactivity |
| QVQLVESGGGLVQAGGSLRLSCAASGRTFPYYAMGWYRQAPGKERELVAAISSSGGSTYYADSVKGRFTISRDNAKNTVYLQMNSLKPEDTAVYYCAATRGWLHSFARDDHDYWGQGTQVTVSS | high polyreactivity |
| QVQLVESGGGLVQAGGRLRLSSAASGSTFHGYAMGWYRQEPGKERELVAAITSGDSTNYADSVKGRFTISRDNAKKTVYLQMNSLKPEDTAVYDCNAEGSSVLTGYWGYPPYWDTYVYWGQGTQVTVSA | low polyreactivity |
| QVQLVESGGGLVQAGGSLRLSCAASGRTFVGYAMGGYRQAPGQERELVANMTTSGGNTYYADSVKGRFTISRDNAKNTDYLQMNSLKPEDTAVYYCAARVYWVTRAVSTSYYYWGQGTQGTVSS | high polyreactivity |
| QVQLVESGGGLVQAGGSLRLSCAASGFIIKSYAMGWYRQAPGKERELVAAISYTGSITYYADSVKGRFTISRDNAKNTVYLQMNSLKPEDTAVYYCAVGRYADQHDYWGQGTQVTVSS | high polyreactivity |
| QVQLVESGGGLVQAGGSLRLSCAASGSTFLDNAMGWYRQAPGKERELVAAISSDGSTYYANSVKGRFTISRDNAKNTVYIQMNSLKPEDTAVYYCAAEYRYYGFWYDYWGQGTQVTVSS | high polyreactivity |
| QVQLGESGGGLVQAGGSLRLSCAASGRIFRNNAMGWYRQAPGKERELVAAITWSGGSTYYADSVKGRFTISRDNAKNTVYLQMNSLKPEDTAVYYCNAGRGYKYSYTYDYWGQGTQVTLSS | low polyreactivity |
